Cited source for all entries: patent US20060148858A1

Overview of recorded melting point for various compounds

CCOc1cccc(CC(=O)O)c1OCCCc1cn(-c2ccc(C(F)(F)F)cn2)nc1C1CCCCC1    156 to 157 °C
CCOc1cc(OCCCc2cn(-c3ccc(C(F)(F)F)cn3)nc2C)ccc1CCC(=O)O    129 to 130 °C
CCOc1nn(-c2cc(C(F)(F)F)ccn2)cc1CCCOc1ccccc1CC(=O)O    121 to 122 °C
COc1ccc(CC(=O)O)cc1OCCCc1cn(-c2ccc(C(F)(F)F)cn2)nc1C1CCCCC1    117 to 118 °C
CCOc1nn(-c2ccc(C(F)(F)F)cn2)cc1CCCOc1nn(-c2ccccc2)cc1CC(=O)O    117 to 118 °C
COc1cccc(CC(=O)O)c1OCCCc1cn(-c2ccc(NS(C)(=O)=O)cn2)nc1C(C)C    176 to 177 °C
CCc1cccc(CC(=O)O)c1OCCCc1cn(-c2ccc(Br)cn2)nc1C(C)C    152 °C
CCOc1cc(OCCCc2cn(-c3ccc(C(F)(F)F)cn3)nc2OCC)ccc1CCC(=O)O    96 to 97 °C

Moving on to another compound below.
Looking for the measured melting point of CCOc1nn(-c2ccc(C(F)(F)F)cn2)cc1CCCOc1cccc(OC)c1CC(=O)O , can you help? 150 to 151 °C

###

The entries below come with measured pEC50 values attached.
tested-target: PPARγ-RXRα heterodimer (Homo sapiens)
Sequence (P37231 29-505, one chain of several): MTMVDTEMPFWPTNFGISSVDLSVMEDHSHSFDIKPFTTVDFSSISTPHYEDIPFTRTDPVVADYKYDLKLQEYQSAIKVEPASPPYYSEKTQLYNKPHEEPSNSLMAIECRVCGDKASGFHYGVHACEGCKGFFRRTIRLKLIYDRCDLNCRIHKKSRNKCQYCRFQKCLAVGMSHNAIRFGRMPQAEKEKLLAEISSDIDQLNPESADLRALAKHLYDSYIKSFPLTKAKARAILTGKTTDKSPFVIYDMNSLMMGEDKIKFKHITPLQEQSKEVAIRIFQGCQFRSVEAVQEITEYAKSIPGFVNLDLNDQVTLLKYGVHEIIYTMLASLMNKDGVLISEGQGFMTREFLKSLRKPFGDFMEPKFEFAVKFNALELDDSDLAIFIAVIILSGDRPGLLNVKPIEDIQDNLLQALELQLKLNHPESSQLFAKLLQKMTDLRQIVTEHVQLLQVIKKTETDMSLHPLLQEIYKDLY
assay-protocol: PPARγ-RXRα heterodimer ligand activity, luciferase reporter in PPARγ:RXRα:4ERPP/CHO-K1 cells (Test Example 3)
cond: 18-48 hours, concentration for 50% of the maximum fold induction
# pEC50 is unitless: minus log10 of the molar concentration; print number only

Answered examples (4):
CCOc1ccc(CC(=O)O)cc1OCCCc1cn(-c2ccc(C(F)(F)F)cn2)nc1C1CCCCC1    7.20
CCOc1nn(-c2ccc(C(F)(F)F)cn2)cc1CCCOc1ccccc1CC(=O)O    7.46
COc1cccc(CC(=O)O)c1OCCCc1cn(-c2ccc(C(C)=O)cn2)nc1C(C)C    7.54
COc1ccc(-n2cc(CCCOc3c(CC(=O)O)cccc3OC)c(C(C)C)n2)nn1    7.44

Record request: pEC50 value, item CC(C)c1nn(-c2ccc(C(F)(F)F)cn2)cc1CCCOc1cccc(OC(C)(C)C(=O)O)c1 7.46

Now the same for CCCc1nn(-c2ccc(C(F)(F)F)cn2)cc1CCCOc1cc(CCC(=O)O)n(-c2ccccc2)n1 7.28

###

reported-property: melting point

Observe how each entry below is paired with its result.
CC(C)c1nn(-c2ccccn2)cc1CCCOc1ccccc1CC(=O)O    140 to 142 °C
CCOc1nn(-c2ccc(C(F)(F)F)cc2)cc1CCCOc1cccc(CC(=O)O)c1    108 to 109 °C
CCCc1nn(-c2ccc(C(F)(F)F)cn2)cc1CCCOc1c(F)cccc1CC(=O)O    105 to 106 °C
O=C(O)CCc1cc(OCCCc2cn(-c3ccc(C(F)(F)F)cn3)nc2C2CCCCC2)nn1-c1ccccc1    182 to 183 °C
CCOc1nn(-c2ccccn2)cc1CCCOc1cc(CCC(=O)O)n(-c2ccccc2)n1    156 to 157 °C
COc1ccc(-n2cc(CCCOc3c(CC(=O)O)cccc3OC)c(C(C)C)n2)nn1    124 to 125 °C
O=C(O)Cc1cccc(F)c1OCCCc1cn(-c2ccc(C(F)(F)F)cn2)nc1C1CCCCC1    149 to 150 °C
CC(C)(Oc1ccc(OCCCCc2cc(-c3ccc(C(F)(F)F)cc3)no2)cc1)C(=O)O    103 to 104 °C

Give the measured melting point of CCCc1nn(-c2ccc(C(F)(F)F)cn2)cc1CCCOc1nn(CC)cc1CC(=O)O . 105 to 106 °C

Also check CCCc1nn(-c2ccc(C(F)(F)F)cn2)cc1CCCOc1ccc(F)c(CC(=O)O)c1 111 to 112 °C

What do we get for CC(C)c1nn(-c2ccc(C(F)(F)F)cn2)cc1CCCOc1cc(CCC(=O)O)n(-c2ccccc2)n1 ? 139 to 140 °C

Lookup CCCCc1nn(-c2ccc(C(F)(F)F)cn2)cc1CCCOc1c(CC(=O)O)cccc1OC 121 to 122 °C

Could you do the same for COc1cccc(CC(=O)O)c1OCCCc1cn(-c2ccc(C(F)(F)F)nn2)nc1C(C)(C)C , please? 131 to 132 °C

###

Measured melting point, listed per entry for reference.

O=C(O)CCc1ccc(OCCCCc2cc(-c3ccc(C(F)(F)F)cc3)no2)cc1    130 to 131 °C
CCCc1nn(-c2ccc(C(F)(F)F)cn2)cc1CCCOc1cccc(CCC(=O)O)c1    97 to 98 °C
CCOc1cc(OCCCc2cn(-c3ccc(C(F)(F)F)cn3)nc2O)ccc1CCC(=O)O    192 to 194 °C
CCc1cccc(CC(=O)O)c1OCCCc1cn(-c2ncc(Cl)cc2Cl)nc1C(C)C    93 to 95 °C
O=C(O)Cc1cccc(OCCCc2cn(-c3ccc(C(F)(F)F)cn3)nc2-c2ccccc2)c1    132 to 133 °C
Cc1nn(-c2ccc(C(F)(F)F)cn2)cc1CCCOc1cc(CC(=O)O)n(C)n1    143 to 144 °C
CCCc1nn(-c2ccc(C(F)(F)F)cn2)cc1CCCOc1cc(CC(=O)O)ccc1OC    124 to 126 °C
CCOc1nn(-c2ccc(C(F)(F)F)cn2)cc1CCCOc1ccc(OC)cc1CC(=O)O    138 to 139 °C

Could you share which melting point value was measured for CCOc1nn(-c2ccc(C(F)(F)F)cn2)cc1CCCOc1ccc(CCC(=O)O)c(OC)c1 ? 120 to 121 °C

Then this compound: O=C(O)Cc1ccccc1OCCCc1cn(-c2ccc(C(F)(F)F)cn2)nc1C1CCCCC1 127 to 128 °C

And CCOc1cc(OCCCc2cn(-c3ccc(C(F)(F)F)cn3)nc2OCc2ccccc2)ccc1CCC(=O)O ? 106 to 107 °C

Subsequent entry: CCCc1nn(-c2ccc(C(F)(F)F)cn2)cc1CCCOc1cc(CC(=O)O)ccc1OCC 124 to 125 °C

// query: CCOc1ccc(OCCCc2cn(-c3ccc(C(F)(F)F)cn3)nc2OCC)c(CCC(=O)O)c1 104 to 105 °C

Can you check COc1cccc(CC(=O)O)c1OCCCc1cn(-c2nnc(C(F)(F)F)s2)nc1C(C)C [Example 194] next? 144 to 145 °C

What do you have for CCCC(C)c1nn(-c2ccc(C(F)(F)F)cn2)cc1CCCOc1c(C)cccc1CC(=O)O (stereo not drawn) ? 147 to 148 °C

Try the compound CCc1cnn(CC(=O)O)c1OCCCc1cn(-c2ccc(C(F)(F)F)cn2)nc1C(C)C 111 to 112 °C

# repeat for COc1cc(OCc2cn(-c3ccc(C(F)(F)F)cn3)nc2C)ccc1CCC(=O)O 158 to 159 °C

Try the compound CCCc1nn(-c2ccc(C(F)(F)F)cn2)cc1CCCOc1c(Br)cccc1CC(=O)O 145 to 146 °C

###

In this section, each of the molecules is paired with its reported melting point.

COc1cccc(CCC(=O)O)c1OCCCc1cn(-c2ccc(C(F)(F)F)cn2)nc1C(C)C    112 to 113 °C
CCOc1nn(-c2ccc(C(F)(F)F)cn2)cc1CCCOc1cccc(OC(C)(C)C(=O)O)c1    120 to 121 °C

Would you mind telling me what melting point value was observed for COc1cccc(OCCCc2cn(-c3ccc(C(F)(F)F)cn3)nc2C(C)C)c1CC(=O)O ? 183 to 184 °C

Let us now turn to CCCc1nn(-c2ccc(C(F)(F)F)cn2)cc1CCCOc1nn(C2CCCCC2)cc1CC(=O)O 127 to 128 °C

Queued: CCC(=O)Nc1ccc(-n2cc(CCCOc3c(CC(=O)O)cccc3OC)c(C(C)C)n2)nc1 147 to 148 °C

Query CCC(CC)c1nn(-c2ccc(C(F)(F)F)cn2)cc1CCCOc1c(F)cccc1CC(=O)O next 102 to 103 °C

Next molecule up: CCOc1nn(-c2ccc(C(F)(F)F)cn2)cc1CCOc1cccc(OC(C)(C)C(=O)O)c1 89 to 90 °C

Query COc1cccc(CC(=O)O)c1OCCCc1cn(-c2ccc(C(F)(F)F)cn2)nc1-c1ccccc1 next 134 to 135 °C

###

tested-target: PPARδ-RXRα heterodimer (Homo sapiens)
Sequence (Q03181 whole entry): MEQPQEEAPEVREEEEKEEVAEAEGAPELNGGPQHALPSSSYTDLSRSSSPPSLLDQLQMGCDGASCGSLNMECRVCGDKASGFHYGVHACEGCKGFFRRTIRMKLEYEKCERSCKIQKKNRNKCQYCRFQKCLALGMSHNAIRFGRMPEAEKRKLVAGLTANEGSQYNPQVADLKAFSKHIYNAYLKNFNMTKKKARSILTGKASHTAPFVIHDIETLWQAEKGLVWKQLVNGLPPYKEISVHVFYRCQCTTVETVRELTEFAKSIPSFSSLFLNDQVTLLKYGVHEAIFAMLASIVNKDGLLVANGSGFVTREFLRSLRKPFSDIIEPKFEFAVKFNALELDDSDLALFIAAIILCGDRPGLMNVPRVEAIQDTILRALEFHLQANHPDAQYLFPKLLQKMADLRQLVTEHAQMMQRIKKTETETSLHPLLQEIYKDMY
Sequence (P19793 whole entry partner): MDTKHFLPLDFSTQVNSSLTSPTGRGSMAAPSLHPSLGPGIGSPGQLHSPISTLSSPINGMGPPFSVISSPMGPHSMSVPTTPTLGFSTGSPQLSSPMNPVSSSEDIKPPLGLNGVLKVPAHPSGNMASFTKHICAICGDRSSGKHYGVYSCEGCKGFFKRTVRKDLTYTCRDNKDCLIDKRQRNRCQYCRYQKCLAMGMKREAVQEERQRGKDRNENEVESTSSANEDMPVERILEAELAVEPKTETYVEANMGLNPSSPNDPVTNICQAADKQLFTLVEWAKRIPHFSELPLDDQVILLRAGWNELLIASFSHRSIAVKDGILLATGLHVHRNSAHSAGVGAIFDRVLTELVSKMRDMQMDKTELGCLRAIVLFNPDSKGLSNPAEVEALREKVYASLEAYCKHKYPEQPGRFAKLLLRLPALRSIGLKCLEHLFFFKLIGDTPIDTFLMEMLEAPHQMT
assay-protocol: PPARδ-RXRα heterodimer ligand activity, luciferase reporter in COS-1 transformant (Test Example 4)
cond: COS-1 transformant (hPPARδ, hRXRα, reporter), 36-48 hours, concentration for 50% of the maximum fold induction
reported-property: log10 of EC50 (log10 of the value in nM)
For clarity, the numbers are log10 values of EC50 expressed in nM.

# count of solved cases: 10
COc1cc(CCC(=O)O)ccc1OCCCc1cn(-c2ccc(C(F)(F)F)cn2)nc1C    0.69
CCOc1ccc(CC(=O)O)cc1OCCCc1cn(-c2ccc(C(F)(F)F)cn2)nc1C(C)C    0.77
COc1cc(CC(=O)O)ccc1OCCCc1cn(-c2ccc(C(F)(F)F)cn2)nc1C(C)C    0.78
CCOc1nn(-c2ccc(C(F)(F)F)cn2)cc1CCOc1cc(CCC(=O)O)n(-c2ccccc2)n1    0.45
CCCc1nn(-c2ccc(C(F)(F)F)cn2)cc1CCCOc1ccc(C(C)(C)C(=O)O)cc1    0.67
CCOc1nn(-c2ccc(C(F)(F)F)cn2)cc1CCCOc1ccc(CCC(=O)O)cc1OC    0.43
CCC(CC)c1nn(-c2ccc(Br)cn2)cc1CCCOc1c(CC(=O)O)cccc1OC    1.86
CCOc1cc(OCCCc2cn(-c3ccc(C(F)(F)F)cn3)nc2OC(C)C)ccc1CCC(=O)O    0.18
Cc1cccc(CC(=O)O)c1OCCCc1cn(-c2ccc(C(F)(F)F)cn2)nc1C1CCCCC1    1.00
CCCc1nn(-c2ccc(C(F)(F)F)cn2)cc1CCCOc1ccc(CCC(=O)O)c(OCC)c1    0.08

Any idea what its log10 of EC50 is? The compound is CCOc1nn(-c2ccc(C(F)(F)F)cn2)cc1CCCCOc1cc(CCC(=O)O)n(-c2ccccc2)n1 0.85

Also check COc1cc(OCc2cn(-c3ccc(C(F)(F)F)cn3)nc2C)ccc1CCC(=O)O 0.69

Now the compound CCOc1nn(-c2ccc(C(F)(F)F)cn2)cc1CCCOc1cc(CC(=O)O)ccc1OC 0.43

One more compound: CCOc1nn(-c2ccc(C(F)(F)F)cn2)cc1CCCOc1cc(CCC(=O)O)n(-c2ccccc2)n1 0.28

Then CCOc1nn(-c2ccc(C(F)(F)F)cn2)cc1CCCOc1cccc(CC(=O)O)c1 ? 0.41

Follow-up item: Cc1cc(OCc2cn(-c3ccc(C(F)(F)F)cn3)nc2C)ccc1CCC(=O)O 0.46

Next compound up: CCCCOc1nn(-c2ccc(C(F)(F)F)cn2)cc1CCCOc1ccc(CCC(=O)O)c(OCC)c1 0.58
